# measurement-protocol: NCI Yeast Anticancer Drug Screen. Data for the bub3 strain (AID 167)
# reported-conditions: S. cerevisiae bub3 mutant strain, at 50.0 µM, active compounds read high
This is part of a sample that, as a whole, favours compounds with a hit. Of some 79,000 tested, about 15% had one in any assay. Calls of active or inactive are those of the source. No stated cut-off is given here; in the data, active means growth inhibition above about 70%; inactive means the rest.
What growth inhibition was measured for each of the following?

For the compound `O=C1CCc2cc3c(cc21)OCO3` , what growth inhibition is on record?
6.7% (inactive)

Report growth inhibition for `N=c1c2ccccc2c2ccccc2n1O` please.
-5.75% (inactive)

Which growth inhibition value is on record for O=C(O)C1(Br)CC1(c1ccccc1)c1ccccc1 (configuration not stated) ?
-0.7% (inactive)

Item `CCOC(Cn1ccccc1=N)OCC` has what recorded growth inhibition?
-7.3% (inactive)

Tell me the measured growth inhibition of CC(C)COC(=O)N1N=NC2C3CC(=O)C(O3)C21 (configuration not stated) , please.
-7.75% (inactive)

Find the recorded growth inhibition belonging to `COc1cccc2c1C(=O)c1c(OC)c(CBr)cc(OC)c1C2=O` and report it.
-7.85% (inactive)

Tell me the measured growth inhibition of `COC(=O)Cc1ccccc1C(c1ccccc1)c1ccccc1` , please.
13.8% (inactive)

====

# measurement-protocol: NCI Yeast Anticancer Drug Screen. Data for the mlh1 rad18 strain (AID 175)
# reported-conditions: S. cerevisiae mlh1 rad18 strain growth inhibition; at 50.0 µM
This is part of a sample that, as a whole, favours compounds with a hit. Of some 79,000 tested, about 15% had one in any assay. Activity calls are given as the source filed them. Rule as the data show it: active = growth inhibition above about 70%; inactive = the rest.
Choose one outcome from this list and give only that: 1 (yes) (active), 0 (no) (inactive)

Please let me know the test result on file for `S=C1N(c2ccccc2)CCN1c1ccccc1` .
0 (no)

// param item: `CC(C)(Oc1ccc(C(=O)c2ccc(Cl)cc2)cc1Cl)C(=O)N1CCN(CCO)CC1` ; yields the recorded call
0 (no)

Could you check what this test reported for `Cc1c(COC(=O)NC(C)C)c(COC(=O)NC(C)C)c(-c2ccccc2)n1-c1ccccc1` ?
0 (no)

Just curious, what result did CC(=O)C1CC2CCC1C2 (centres undefined) get here?
0 (no)

Just curious, what result did `N#Cc1ccc(/C=N\NC(=O)CCSCCC(=O)N/N=C/c2ccc(C#N)cc2)cc1` get here?
0 (no)

Assay outcome for `COC(=O)c1nnn(-c2cccc(Cl)c2)c1C(=O)c1ccc(Cl)c(Cl)c1` : what was it?
0 (no)

// return assay outcome for `N#Cc1c(-c2ccccc2)cc(-c2cccs2)c(C#N)c1N`
0 (no)

Could you kindly confirm the outcome this assay logged for `Nc1ccc2c(c1)C(=O)N(OS(=O)(=O)c1ccccc1)C2=O` ?
0 (no)

Call for entry `O=C(/C=C/c1ccc(OCCCOc2ccc(/C=C/C(=O)c3ccccc3)cc2)cc1)c1ccccc1` :
0 (no)

Could you kindly confirm the outcome this assay logged for COCCN(C)C(c1ccccc1)C(O)c1ccccc1 (centres undefined) ?
0 (no)

Record lookup: outcome of this test for `O=[N+]([O-])c1ccc(S(=O)(=O)N(CCCBr)c2ccccc2)cc1` ?
1 (yes)

Which outcome did this test record for the compound `CC(=O)c1cccc(NC(=O)Oc2ccc(F)cc2Cl)c1` ?
0 (no)

Query: recorded result category for `NCOC(=O)Cc1ccc(Br)cc1` in this test
0 (no)

Assay outcome for `c1ccc2c3c([nH]c2c1)C1(CCCCC1)c1c([nH]c2ccccc12)C31CCCCC1` : what was it?
0 (no)

Lab log entry: CC(NNC(=S)N1CCCC1)c1cccc[n+]1[O-] (centres undefined) — outcome as called in the assay?
0 (no)

Would you mind telling me which call this test gave CC(=O)C1C(=O)C(=O)N(CCN2C(=O)C(=O)C(C(C)=O)C2=O)C1=O (centres undefined) ?
0 (no)

Please state the recorded outcome for this compound: `c1cc2nc(c1)CSCCCCCCCCSC2`
0 (no)

Status in this test for O=[N+]([O-])c1cccc(NC(c2ccccc2)S(=O)(=O)O)c1 (centres undefined) ?
0 (no)

Can you look up the reported call for `CCOC(=O)CCC[n+]1cccc(C#N)c1` for me?
0 (no)

Answer briefly: the call reported for CC12CCCCC1C1=C(CCCC1)CC2 (centres undefined) in this assay.
0 (no)

Give the logged outcome of this assay for the following compound: COc1cc2c(cc1O)C1Cc3cc(O)c(OC)cc3C(C2)N1C (centres undefined)
0 (no)

# fetch the recorded call for `COC(=O)/C=C/c1ccc2c(c1)CCCC2` here
0 (no)

Call for entry `O=[N+]([O-])c1ccc2nc(Cl)cnc2c1` :
0 (no)

# fetch the recorded call for `CC1(C)CSC(C)(C)C(=O)N1` here
0 (no)

====

# measurement-protocol: NCI Yeast Anticancer Drug Screen. Data for the bub3 strain (AID 167)
# reported-conditions: S. cerevisiae bub3 mutant strain, at 50.0 µM, active compounds read high
Compounds without any hit were thinned out: in the full panel of roughly 79,000, 15% have a hit.
Answer each item with its documented growth inhibition.
Your answer is read as %, so omit the unit and give the number.

Form field: reported growth inhibition of `CCCCc1c(O)c2c(=O)[nH]c(C)nc2oc1=O`
-32.4

Requested read-out: growth inhibition. Entry: `CCOC(=O)c1ccc(CCCN)cc1`
-10

Please report the recorded growth inhibition for `CC(=O)Nc1ccc(S(=O)(=O)Oc2noc3ccc(Br)cc23)cc1` .
-3.95

Query (molecule): CC1=CC2C3C(=O)NC(=O)C3C1C1C3C(=O)NC(=O)C3C21 (stereo unspecified) ; field requested: growth inhibition
2.45

Value lookup for growth inhibition; key = `O=C1Nc2ccccc2CS1`
6.95

Please report the recorded growth inhibition for c1ccc(C23CCCCC2O3)cc1 (stereo unspecified) .
12.4

Report growth inhibition for `O=C(O)CSc1cc(Br)c(Br)cc1C(=O)O` please.
9.8

Request the reported growth inhibition associated with `CC1(C)[C@H]2Cc3c(ccc4c3C(=O)OC4=O)[C@@H]1C2`
-17.4

Using the record for `O=C1C=C(Nc2cc(Cl)ccc2Cl)c2ccccc2C1=O` , report its growth inhibition.
15.2

I am curious: what growth inhibition value has been reported for C#CC(O)(CC)CCCC (stereo unspecified) ?
-10.9

Requested read-out: growth inhibition. Entry: `COc1cccc(-c2nnc(-c3cccc(OC)c3)o2)c1`
25.5

Fill in: growth inhibition of `CCCCCCCCCCCOC(=O)CCl` is ___
-12.8

Recorded growth inhibition of `COc1ccc(Cl)cc1NC(=O)Nc1cc(C)ccc1Cl` , please.
28.8

I have this molecule here, `CCOCCOCCOC(=O)c1ccccc1O` , and I need its recorded growth inhibition.
11.2

Any idea what its growth inhibition is? The molecule is O=C1NC(=O)C(c2ccccc2)(c2ccsc2)N1 (stereo unspecified)
1

Query: growth inhibition; subject: Cc1cc(Cl)cc2c1NC(=O)C2(O)CC(=O)c1ccco1 (stereo unspecified)
-11.7

Dear colleague, I am looking for the recorded growth inhibition of the following molecule: Cc1ccc(/S(Cc2ccccc2)=N\S(=O)(=O)c2ccc(C)cc2)cc1 (stereo unspecified)
-27.8

Record request: growth inhibition value, item CCOC(=O)C(NC(=O)CC)(Nc1ccc(S(=O)(=O)Nc2ncccn2)cc1)C(F)(F)F (stereo unspecified)
-9.55

Consider the molecule shown here: CCCC(=O)OC(C)COc1ccccc1 (stereo unspecified) What is its recorded growth inhibition?
13.4

Fill in the blank: the reported growth inhibition of CC(=O)OCCCC1CO1 (stereo unspecified) is ____.
-14.2

Sample `CC(=O)NNc1nc(C)c(C(=O)/C=C/c2ccc(/C=C/C(=O)c3sc(NNC(C)=O)nc3C)cc2)s1` — what was its growth inhibition?
-13.2

Find the recorded growth inhibition belonging to CCOC(=O)CCCCCC(C(=O)OCC)c1nc2ccccc2[nH]c1=O (stereo unspecified) and report it.
11.1

Fill in the blank: the reported growth inhibition of `NS(=O)(=O)/C=C(\Cl)c1ccccc1` is ____.
12.2

Field request: growth inhibition | item: COC(=O)CCCCCCCCCCC1C=CCC1 (stereo unspecified)
-3.45

Can you share its growth inhibition? I mean this molecule: `Nc1ccc2nnn(OC3CCCC3)c2c1`
-4.05

I would be grateful if you could share the reported growth inhibition for CC(=O)OCCC1CC2c3[nH]c4ccccc4c3CCN2C1=O (stereo unspecified) .
10.7

====

# measurement-protocol: NCI Yeast Anticancer Drug Screen. Data for the rad50 strain (AID 155);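 further: 0% = growth of vehicle-only cultures of the same strain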
# reported-conditions: S. cerevisiae rad50 strain growth inhibition; at 50.0 µM; active compounds read high
The panel holds about 79,000 compounds, 15% with a hit somewhere; the sample as a whole holds those more often.
property-name: growth inhibition (%)
The reply should be a number in %, with the unit left off.

Looking for the measured growth inhibition of `O=C(O)CCSSCCC(=O)O` , can you help?
7.25

Please look up its growth inhibition: `CC(=O)NCc1cc(C)c(CBr)cc1CBr`
-1.95

Look up growth inhibition: C1=NN=C2C=C3CCc4ccccc4C3CC12 (configuration not stated)
7.45

# input compound: `COC(=O)c1ccccc1N=NNc1ccc(C)c(Cl)c1` ; wanted: its growth inhibition
36.2

Could you tell me which growth inhibition is on file for `S=C(S)N1CCN(c2cccc(Cl)c2)CC1` ?
40.2

I have this compound here, O=C(CCC(=O)C1Cc2ccccc2C1=O)Nc1cccc(C(F)(F)F)c1 (configuration not stated) , and I need its recorded growth inhibition.
-38.8

Recorded growth inhibition of `COC(=O)C(C(=O)OC)C(Br)(OC(C)=O)OC(C)=O` , please.
-8.95

Record request: growth inhibition value, item N#CC(C(=O)/C(=N\NC(N)=O)C(C#N)c1ccc(Cl)cc1)c1ccc(Cl)cc1 (configuration not stated)
-33.6

Field request: growth inhibition | item: COc1ccc(/C(=N/NS(=O)(=O)c2ccc([N+](=O)[O-])cc2)C2COC(=O)C2)cc1OC (configuration not stated)
6.15

Need growth inhibition of CC(=O)N1CN2C(=O)CCC2c2ccccc21 (configuration not stated) , thanks.
-7.85

# query: growth inhibition of entry O=C(OCC1OC(OC(=O)c2ccccc2)C(O)C1OC(=O)c1ccccc1)c1ccccc1 (configuration not stated)
45.2

Param item = `CCCCCCCCCCn1cnc2c(=O)[nH]c(N)nc21` ; retrieve measured growth inhibition.
1.85

Please give the measured growth inhibition for this compound: `O.O.O=c1cc(Cl)[nH]c(=O)[nH]1.[NH2-].[NH2-].[Pt+4]`
-21.9

Recorded growth inhibition of Oc1ccc2ccccc2c1C(c1cccc2ccccc12)N1CCCCC1 (configuration not stated) , please.
16.1

GET /values?readout=growth inhibition&item= `BrC12CC3CC(CC(C3)C1)C2`
21.8

Query: growth inhibition; subject: O=C1c2ccccc2C(=O)N1CC(O)COc1cccc2ccccc12 (configuration not stated)
-23.1

Item CC(=O)OCC1OC(OCC(OC(C)=O)C(OC(C)=O)C(OC(C)=O)c2cnn(-c3ccccc3)n2)C(OC(C)=O)C(OC(C)=O)C1OC(C)=O (configuration not stated) has what recorded growth inhibition?
1.35

I would be grateful if you could share the reported growth inhibition for O=C(Nc1ccc(F)cc1)C(Br)C(Br)c1ccccc1 (configuration not stated) .
91

Recorded growth inhibition for `O` , please?
13.2

Form field: reported growth inhibition of `CCCCCCCCCCCCCC/C=N/Nc1ccc([N+](=O)[O-])cc1[N+](=O)[O-]`
21.3

Bench note: what growth inhibition did CN1C(C(=O)O)CCC1C(=O)O (configuration not stated) show?
-1.2

Name the reported growth inhibition value associated with the compound `C[N+]1(CSC(=O)c2ccccc2)CCCCC1`
1.95

State the recorded growth inhibition for this entry: `N=C(CC(=O)Nc1ccccn1)c1ccccc1`
1.25

# growth inhibition lookup, item Cc1ccc(S(=O)NOCc2ccccc2)cc1 (configuration not stated)
3.25

Query (compound): CC(=O)OCC1OC(N2C(S)=C(C#N)C(c3ccco3)C(C(C)=O)=C2c2ccccc2)C(OC(C)=O)C(OC(C)=O)C1OC(C)=O (configuration not stated) ; field requested: growth inhibition
21.4

State the recorded growth inhibition for this entry: C#CC(OC(=O)NC(C(=O)OC)C(C)C)(c1ccccc1)c1ccccc1 (configuration not stated)
31.1

Given `O=S(=O)(Nc1ccccc1)c1cc(O)ccc1O` , state its recorded growth inhibition.
-3.35

growth inhibition for NCC(O)CSc1ccccc1 (configuration not stated) ?
-10.6

Endpoint output: growth inhibition of COc1cc(C2c3cc4c(cc3OC3(OC)COC(=O)C23)OCO4)cc(OC)c1OC (configuration not stated) . Value?
0.4

Reported growth inhibition for C#CCOC(=O)C(N)CC(N)=O (configuration not stated) : what is it?
-13.8

I am curious: what growth inhibition value has been reported for CO[C@H]1CC2CC1C1C3=C(NC21)C1(O)C[C@H]2CN(CC3)C1C[C@@H]2C(C)CO (some centres not stated) ?
-3.6

// query growth inhibition value for entry `O=[N+]([O-])c1ccccc1C=Nc1ccc2nc(SCc3ccccc3)sc2c1`
8.15

Return reported growth inhibition; argument: `CC(=O)N1CC(C)(C)c2c1cc(C)c(O)c2C`
1.85

Given `CN(C)CCNC(=O)c1cccc2nc3c(C(=O)NCCN(C)C)cccc3nc12` , state its recorded growth inhibition.
-11.7

Which growth inhibition is listed for CC(=O)CCC(CC=O)C(C)C (configuration not stated) ?
3.35

Any idea what its growth inhibition is? The compound is CN(C)C(=O)C1CCC(=O)N1 (configuration not stated)
3.1

Suppose we examine the compound `CC(=O)/C(C(=N)C(=O)c1ccccc1)=C(\C)O` ; what growth inhibition value has been reported?
-12.1

Request the reported growth inhibition associated with `COC(=O)C1=C(C(=O)OC)SC(=CC#CC=C2SC(C(=O)OC)=C(C(=O)OC)S2)S1`
9.5

Field request: growth inhibition | item: COc1ccc(C2CC(C)(O)Oc3cc4c(cc32)OCO4)cc1 (configuration not stated)
47.5

What growth inhibition value was documented for this compound, `COc1ccc(C(=O)c2ccc(OC)c3ccccc23)c2ccccc12` ?
-7.3

Reported growth inhibition, compound `O=C(N/N=C/c1ccccc1)c1c(F)c(F)c(F)c(F)c1F` : ____
-27.6

Sample `OCC#C[C@@H]1CC[C@H]1C#CCO` — what was its growth inhibition?
7.3

Returns the measured growth inhibition for the input compound. Input: C/C(=C/C(C)C)C(C)(C#N)C(N)=O (configuration not stated)
8.75

// lookup growth inhibition for `CCOC(=O)c1ccc(N(C=O)CCC(OCC)OCC)cc1`
-2.25

What value of measured growth inhibition is listed for `CC(C)(C)c1ccc(C(C)(C)C)c(=O)[nH]1` ?
-32.1

Requested field: growth inhibition. Item: `c1ccc2c(c1)C1OC2c2ccccc21`
-30.2

Which value of growth inhibition has been reported for O=C(OC1COC(n2c(=O)oc3cc([N+](=O)[O-])c([N+](=O)[O-])cc32)C(OC(=O)c2ccccc2)C1OC(=O)c1ccccc1)c1ccccc1 (configuration not stated) in the records?
-5.15
